Listing: ΔTm of selected compounds
Test system: Quadruplex DNA
Assay: Stabilization of human G4 quadruplex telomeric22 DNA assessed as change in temperature at 5 uM by FRET assay
Assay type: nucleic-acid assay
Give just the numeric value; °C need not be written.

{"columns": ["chemicalSmiles", "measurementName", "resultNumber"],
 "data": [
  ["CCN(CC)CCCn1c2ccccc2c2cc(-c3cc(-c4ccc5c(c4)c4ccccc4n5CCCN(CC)CC)cc(-c4ccc5c(c4)c4ccccc4n5CCCN(CC)CC)c3)ccc21", "ΔTm", 8.4],
  ["c1ccc2c(c1)c1cc(-c3cc(-c4ccc5c(c4)c4ccccc4n5CCN4CCCC4)cc(-c4ccc5c(c4)c4ccccc4n5CCN4CCCC4)c3)ccc1n2CCN1CCCC1", "ΔTm", 10],
  ["c1ccc2c(c1)c1cc(-c3cc(-c4ccc5c(c4)c4ccccc4n5CCN4CCCCC4)cc(-c4ccc5c(c4)c4ccccc4n5CCN4CCCCC4)c3)ccc1n2CCN1CCCCC1", "ΔTm", 2.3]
]}

ΔTm for "CCN(CC)CCn1c2ccccc2c2cc(-c3cc(-c4ccc5c(c4)c4ccccc4n5CCN(CC)CC)cc(-c4ccc5c(c4)c4ccccc4n5CCN(CC)CC)c3)ccc21" ?
4.9

----------
Tested on: Staphylococcus aureus
Assay: Antimicrobial activity against Staphylococcus aureus MTCC 96 assessed as zone of inhibition by […]
Type: functional
measurementName: inhibition zone (IZ) (mm)
Numbers only here, please. The scale is mm.

Solved cases (4 shown):
{"columns": ["compound", "inhibition zone (IZ), mm"],
 "data": [
  ["NC(=S)N1N=C(c2ccc(Oc3nc(Oc4ccc(C5=NN(C(N)=S)C(c6ccccc6)C5)cc4)nc(Oc4ccc(C5=NN(C(N)=S)C(c6ccccc6)C5)cc4)n3)cc2)CC1c1ccccc1 (stereo not given)", 13],
  ["Cc1ccc(/C=C/C(=O)c2ccc(Oc3nc(Oc4ccc(C(=O)/C=C/c5ccc(C)cc5)cc4)nc(Oc4ccc(C(=O)/C=C/c5ccc(C)cc5)cc4)n3)cc2)cc1", 7],
  ["NC(=S)N1N=C(c2ccc(Oc3nc(Oc4ccc(C5=NN(C(N)=S)C(c6cccc([N+](=O)[O-])c6)C5)cc4)nc(Oc4ccc(C5=NN(C(N)=S)C(c6cccc([N+](=O)[O-])c6)C5)cc4)n3)cc2)CC1c1cccc([N+](=O)[O-])c1 (stereo not given)", 10],
  ["Cc1ccc(C2CC(c3ccc(Oc4nc(Oc5ccc(C6=NN(C(N)=S)C(c7ccc(C)cc7)C6)cc5)nc(Oc5ccc(C6=NN(C(N)=S)C(c7ccc(C)cc7)C6)cc5)n4)cc3)=NN2C(N)=S)cc1 (stereo not given)", 11]
]}

Item NC(=S)N1N=C(c2ccc(Oc3nc(Oc4ccc(C5=NN(C(N)=S)C(c6ccc(Cl)cc6)C5)cc4)nc(Oc4ccc(C5=NN(C(N)=S)C(c6ccc(Cl)cc6)C5)cc4)n3)cc2)CC1c1ccc(Cl)cc1 (stereo not given) with Staphylococcus aureus - inhibition zone (IZ)?
11

----------
Recorded ΔTm, one value per entry.
Tested on: Quadruplex DNA
Assay: Stabilization of human G4 quadruplex telomeric22 DNA assessed as change in temperature at 1 uM by FRET assay
Type: nucleic-acid assay
Express the result in °C but write the number alone.

Example compounds with recorded ΔTm:
{"columns": ["chemicalSmiles", "uom", "ΔTm"],
 "data": [
  ["CCCCCCNCCCC(=O)Nc1ccc(-c2cn(Cc3cc(Cn4cc(-c5ccc(NC(=O)CCCNCCCCCC)cc5)nn4)cc(Cn4cc(-c5ccc(NC(=O)CCCNCCCCCC)cc5)nn4)c3)nn2)cc1", "°C", 1],
  ["CCCOCCNCCCC(=O)Nc1ccc(-c2cn(Cc3cc(Cn4cc(-c5ccc(NC(=O)CCCNCCOCCC)cc5)nn4)cc(Cn4cc(-c5ccc(NC(=O)CCCNCCOCCC)cc5)nn4)c3)nn2)cc1", "°C", 0],
  ["c1ccc2c(c1)c1cc(-c3cc(-c4ccc5c(c4)c4ccccc4n5CCCN4CCCC4)cc(-c4ccc5c(c4)c4ccccc4n5CCCN4CCCC4)c3)ccc1n2CCCN1CCCC1", "°C", 2.6],
  ["CCNCCCC(=O)Nc1ccc(-c2cn(Cc3cc(Cn4cc(-c5ccc(NC(=O)CCCNCC)cc5)nn4)cc(Cn4cc(-c5ccc(NC(=O)CCCNCC)cc5)nn4)c3)nn2)cc1", "°C", 1],
  ["c1ccc2c(c1)[nH]c1ccc(-c3cc(-c4ccc5[nH]c6ccccc6c5c4)cc(-c4ccc5[nH]c6ccccc6c5c4)c3)cc12", "°C", 1.1]
]}

Given the entry "c1ccc2c(c1)c1cc(-c3cc(-c4ccc5c(c4)c4ccccc4n5CCCN4CCCCC4)cc(-c4ccc5c(c4)c4ccccc4n5CCCN4CCCCC4)c3)ccc1n2CCCN1CCCCC1" , report its measured ΔTm.
6
